tested-on: 1D-myo-inositol 2-acetamido-2-deoxy-alpha-D-glucopyranoside deacetylase (Mycobacterium tuberculosis) (UniProt P9WJN3)
Sequence (P9WJN3 whole entry): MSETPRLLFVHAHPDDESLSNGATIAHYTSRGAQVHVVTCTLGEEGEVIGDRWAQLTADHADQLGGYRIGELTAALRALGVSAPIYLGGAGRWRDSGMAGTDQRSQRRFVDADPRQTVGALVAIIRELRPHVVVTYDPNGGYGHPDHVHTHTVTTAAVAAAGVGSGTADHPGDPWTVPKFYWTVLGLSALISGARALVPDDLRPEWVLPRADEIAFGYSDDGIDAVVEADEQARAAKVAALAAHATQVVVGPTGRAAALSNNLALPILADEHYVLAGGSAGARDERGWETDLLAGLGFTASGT
experimental-details: Activity at Mycobacterium tuberculosis MshB expressed in Escherichia coli BL21 at 250 uM assessed per mg of protein by HPLC analysis
Exercise: state measured Activity for each of the compounds provided.
One number for each entry, in nmol/min/mg.

Requested field: Activity. Item: CC(=O)N[C@@H]1[C@@H](O)[C@H](O)[C@@H](CO)O[C@@H]1SC1CCCCC1 6.11

Requested field: Activity. Item: CC(=O)N[C@@H]1[C@@H](O)[C@H](O)[C@@H](CO)O[C@@H]1Sc1ccccc1 27

Need Activity, item CC(=O)N[C@H]1[C@@H](O[C@@H]2[C@H](O)[C@H](O)[C@@H](O)[C@H](O)[C@H]2O)O[C@H](CO)[C@@H](O)[C@@H]1O 106

Please find the next compound below.
Entry CC(=O)N[C@H]1[C@@H](OC2CCCCC2)O[C@H](CO)[C@@H](O)[C@@H]1O : reported Activity = ? 6.07

* * *

Tested on: Mycolicibacterium smegmatis
experimental-details: Inhibition of Mycobacterium smegmatis Mca at 250 uM after 10 mins by HPLC analysis
Would you mind telling me the reported inhibition of each entry?
Give bare numbers, in %.

Record request: inhibition value, item CC1=C(CCCCC(=O)N[C@@H]2[C@@H](O)[C@H](O)[C@@H](CO)O[C@@H]2Sc2ccccc2)C(=O)c2c(O)cccc2C1=O 23.2

For each of the compounds below, state inhibition.
1. CCC[C@H]1[C@@H](OC2CCCCC2)O[C@H](CO)[C@@H](O)[C@@H]1O
2. N[C@@H]1[C@@H](O)[C@H](O)[C@@H](CO)O[C@@H]1SC1CCCCC1
3. CC(=O)N[C@@H]1[C@@H](O)[C@H](O)[C@@H](CO)O[C@H]1Sc1ccccc1

22
0
0

* * *

Tested on: Mycolicibacterium smegmatis
experimental-details: Inhibition of Mycobacterium smegmatis Mca at 250 uM after 10 mins by HPLC analysis
Would you mind telling me the reported inhibition of each entry?
Give bare numbers, in %.

# annotated cases, reported inhibition shown
# get_value(readout= inhibition, system= Mycolicibacterium smegmatis) for OC[C@H]1O[C@H](OC2CCCCC2)[C@@H]2CC(O)CO[C@H]2[C@@H]1O (some centres not stated) 35

Find inhibition (Mycolicibacterium smegmatis) for the entry OC[C@H]1O[C@H](OC2CCCCC2)[C@H](CC2CO2)[C@@H](O)[C@@H]1O (some centres not stated) 19.4

Find the measured inhibition: item C=CC[C@H]1[C@@H](OC2CCCCC2)O[C@H](CO)[C@@H](O)[C@@H]1O , target or system Mycolicibacterium smegmatis. 73.8

Please state inhibition for every compound in the list that follows.
1. CC(O)C[C@H]1[C@@H](OC2CCCCC2)O[C@H](CO)[C@@H](O)[C@@H]1O (some centres not stated)
2. CC1=C(CCCCCC(=O)N[C@@H]2[C@@H](O)[C@H](O)[C@@H](CO)O[C@@H]2Sc2ccccc2)C(=O)c2c(O)cccc2C1=O
3. N[C@@H]1[C@@H](O)[C@H](O)[C@@H](CO)O[C@@H]1Sc1ccccc1
4. CC1=C(CCC(=O)N[C@@H]2[C@@H](O)[C@H](O)[C@@H](CO)O[C@@H]2Sc2ccccc2)C(=O)c2c(O)cccc2C1=O

1: 20.5; 2: 44.5; 3: 17; 4: 28.8

Record inhibition per entry; entries follow.
1. CC(=O)C[C@H]1[C@@H](OC2CCCCC2)O[C@H](CO)[C@@H](O)[C@@H]1O
2. C=CC[C@H]1[C@H](OC2CCCCC2)O[C@H](CO)[C@@H](O)[C@@H]1O
3. CC(=N)N[C@@H]1[C@@H](O)[C@H](O)[C@@H](CO)O[C@@H]1SC1CCCCC1
4. CC(=O)N[C@@H]1[C@@H](O)[C@H](O)[C@@H](CO)O[C@H]1SCc1ccccc1
5. O=C(CCl)N[C@@H]1[C@@H](O)[C@H](O)[C@@H](CO)O[C@@H]1SC1CCCCC1
6. CC(=O)N[C@@H]1[C@@H](O)[C@H](O)[C@@H](CO)O[C@@H]1Sc1ccc([N+](=O)[O-])cc1[N+](=O)[O-]

1. 17.2
2. 9.3
3. 6.8
4. 0
5. 0
6. 0

Would you mind giving inhibition for every compound in the list below?
1. CO[C@H]1OCC(S[C@H]2O[C@H](CO)[C@@H](O)[C@H](O)[C@H]2NC(C)=O)C[C@H]1O (some centres not stated)
2. CC1=C(CCCC(=O)N[C@@H]2[C@@H](O)[C@H](O)[C@@H](CO)O[C@@H]2Sc2ccccc2)C(=O)c2c(O)cccc2C1=O
3. CS(=O)(=O)N[C@@H]1[C@@H](O)[C@H](O)[C@@H](CO)O[C@@H]1SC1CCCCC1
4. O=C(Nc1ccccc1)N[C@@H]1[C@@H](O)[C@H](O)[C@@H](CO)O[C@@H]1SC1CCCCC1

1: 27; 2: 37.8; 3: 0; 4: 15

* * *

Provide the reported inhibition of each item.
tested-on: 1D-myo-inositol 2-acetamido-2-deoxy-alpha-D-glucopyranoside deacetylase (Mycobacterium tuberculosis)
experimental-details: Inhibition of Mycobacterium tuberculosis MshB expressed in Escherichia coli BL21 at 500 uM after 10 mins by HPLC analysis
One number for each entry, in %.

Example results:
GET /values?readout=inhibition&item= OC[C@H]1O[C@H](OC2CCCCC2)[C@H](CC2CO2)[C@@H](O)[C@@H]1O (some centres undefined) 19.7

Please report the recorded inhibition for OC[C@H]1O[C@H](OC2CCCCC2)[C@@H]2CC(O)CO[C@H]2[C@@H]1O (some centres undefined) . 6.6

I would be grateful if you could share the reported inhibition for N[C@@H]1[C@@H](O)[C@H](O)[C@@H](CO)O[C@@H]1Sc1ccccc1 . 6.1

Next:
Given the compound C=CC[C@H]1[C@@H](OC2CCCCC2)O[C@H](CO)[C@@H](O)[C@@H]1O , what is its reported inhibition? 0

* * *

tested-on: 1D-myo-inositol 2-acetamido-2-deoxy-alpha-D-glucopyranoside deacetylase (Mycobacterium tuberculosis) (UniProt P9WJN3)
experimental-details: Inhibition of Mycobacterium tuberculosis MshB expressed in Escherichia coli BL21 at 500 uM after 10 mins by HPLC analysis
Answer Not satisfied if inhibition is under 10%, and Satisfied if it is 10% or more.

Use these answered entries as a reference point.
For this molecule, is measured inhibition 10% or higher? CC(O)C[C@H]1[C@@H](OC2CCCCC2)O[C@H](CO)[C@@H](O)[C@@H]1O (some centres not stated) Satisfied

hey, is inhibition for this one >= 10%? CC1=C(CCCCC(=O)N[C@@H]2[C@@H](O)[C@H](O)[C@@H](CO)O[C@@H]2Sc2ccccc2)C(=O)c2c(O)cccc2C1=O Satisfied

Exam item: decide whether the reported inhibition for CC(=O)C[C@H]1[C@@H](OC2CCCCC2)O[C@H](CO)[C@@H](O)[C@@H]1O is at least 10%. Not satisfied

Is inhibition at least 10%? Consider CC1=C(CCCCCC(=O)N[C@@H]2[C@@H](O)[C@H](O)[C@@H](CO)O[C@@H]2Sc2ccccc2)C(=O)c2c(O)cccc2C1=O Satisfied

Further cases:
Assess whether reported inhibition for CC(=O)N[C@@H]1[C@@H](O)[C@H](O)[C@@H](CO)O[C@H]1Sc1ccccc1 sits at 10% or higher. Satisfied

Determine whether measured inhibition meets or exceeds 10% for O=C(Nc1ccccc1)N[C@@H]1[C@@H](O)[C@H](O)[C@@H](CO)O[C@@H]1SC1CCCCC1 Satisfied

Answer whether inhibition of CC1=C(CCCC(=O)N[C@@H]2[C@@H](O)[C@H](O)[C@@H](CO)O[C@@H]2Sc2ccccc2)C(=O)c2c(O)cccc2C1=O is greater than or equal to 10%. Satisfied

Does the molecule CC(=O)N[C@@H]1[C@@H](O)[C@H](O)[C@@H](CO)O[C@@H]1Sc1ccc([N+](=O)[O-])cc1[N+](=O)[O-] have recorded inhibition that is 10% or more? Satisfied

Could you tell me if the measured inhibition of CC1=C(CCC(=O)N[C@@H]2[C@@H](O)[C@H](O)[C@@H](CO)O[C@@H]2Sc2ccccc2)C(=O)c2c(O)cccc2C1=O reaches 10% or more? Satisfied

Is inhibition at least 10%? Consider CC(=O)N[C@@H]1[C@@H](O)[C@H](O)[C@@H](CO)O[C@H]1SCc1ccccc1 Satisfied

Does the reported inhibition for O=C(CCl)N[C@@H]1[C@@H](O)[C@H](O)[C@@H](CO)O[C@@H]1SC1CCCCC1 fall at or above the 10% mark? Satisfied

Reported inhibition at or above 10%? CS(=O)(=O)N[C@@H]1[C@@H](O)[C@H](O)[C@@H](CO)O[C@@H]1SC1CCCCC1 Not satisfied

Reported inhibition at or above 10%? C=CC[C@H]1[C@H](OC2CCCCC2)O[C@H](CO)[C@@H](O)[C@@H]1O Not satisfied

Could you tell me if the measured inhibition of N[C@@H]1[C@@H](O)[C@H](O)[C@@H](CO)O[C@@H]1SC1CCCCC1 reaches 10% or more? Satisfied

Assess whether reported inhibition for CCC[C@H]1[C@@H](OC2CCCCC2)O[C@H](CO)[C@@H](O)[C@@H]1O sits at 10% or higher. Not satisfied

Reported inhibition at or above 10%? CC(=N)N[C@@H]1[C@@H](O)[C@H](O)[C@@H](CO)O[C@@H]1SC1CCCCC1 Not satisfied

Check this molecule for inhibition at or above 10%: CO[C@H]1OCC(S[C@H]2O[C@H](CO)[C@@H](O)[C@H](O)[C@H]2NC(C)=O)C[C@H]1O (some centres not stated) Not satisfied

Source listed as ChEMBL document CHEMBL1156177.
